Target: T1, 4H605-AA
T1 chain: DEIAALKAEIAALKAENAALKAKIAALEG
Assay: two-hybrid library CCmax;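 further: natural log of median RNA to DNA barcode read ratio; higher means stronger binding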
Conditions: mean of both orientations
attribute.measured: interaction score

Check out these entries, answers already filled in.
- binder: "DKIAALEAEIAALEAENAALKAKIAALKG [4H2078-AA]"
  interaction score: 1.68
- binder: "DENAALEAKIAALEAKIAALKAENAALKG [4H1324-AA]"
  interaction score: -1.44
- binder: "DKNAALEAEIAALEAKIAALEAKNAALKG [4H3112-AA]"
  interaction score: -1.38
- binder: "DKIAALKAKIAALKAEIAALEAENAALEG [4H2883-AA]"
  interaction score: -1.31
- binder: "DKNAALEAKIAALEAEIAALKAKNAALEG [4H3343-AA]"
  interaction score: -1.38
- binder: "DEIAALEAKIAALKAEIAALKAKNAALEG [4H335-AA]"
  interaction score: -1.51
- binder: "DKNAALKAEIAALKAEIAALEAKNAALEG [4H3655-AA]"
  interaction score: -1.25
- binder: "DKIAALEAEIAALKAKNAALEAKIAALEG [4H2165-AA]"
  interaction score: -1.15

1: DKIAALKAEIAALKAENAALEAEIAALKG [4H2642-AA]
2: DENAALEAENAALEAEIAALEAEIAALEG [4H1153-AA]
3: DKNAALKAEIAALEAENAALEAKIAALKG [4H3606-AA]
4: DKIAALEAKNAALKAEIAALKAEIAALEG [4H2505-AA]
5: DENAALEAEIAALEAKNAALKAKIAALKG [4H1086-AA]
q: rank_up(items): orders items by reported interaction score in ascending numerical order. Give the labels in the order requested.
a: 2, 4, 5, 3, 1
(2: -1.75, 4: -1.14, 5: -0.771, 3: 0.159, 1: 1.36)
